Where do these numbers come from? They come from PubChem BioAssay (NCI).

Assay: NCI Yeast Anticancer Drug Screen. Data for the bub3 strain (AID 167)
Conditions: S. cerevisiae bub3 mutant strain, at 50.0 µM (retest, dose inferred, filed as 5.0), active compounds read high
Method: Growth inhibition of yeast strains with defined genetic alterations is measured as a screen for potential anti-cancer activity. Selected strains with alterations in DNA damage repair or cell cycle control were exposed to compounds and growth inhibition was measured relative to vehicle treated controls. The strain used in this assay is bub3
This is part of a sample that, as a whole, favours compounds with a hit. Of some 79,000 tested, about 15% had one in any assay.
Decide by growth inhibition: equal to or exceeding 70% means True, less means False.

| molecule | assigned.label |
| --- | --- |
| BrCC(Br)Cc1ccc2c(c1)OCO2 (configuration not stated) | False |
| C(=C\c1ccc(-[n+]2nc(-c3ccccc3)nn2-c2ccccc2)cc1)/c1ccccc1 | True |
| Cn1cc(CCC(=O)C2C=CC=CC2=NC(=O)CCCl)c2ccccc21 (configuration not stated) | False |
| CC(C)(C)c1cc(C(c2cc3c(cc2O)OCO3)N2CCOCC2)cc(C(C)(C)C)c1O (configuration not stated) | True |
| O=C/C(Br)=C\c1ccccc1 | True |
| CNC(=O)c1cc(NC(=O)c2ccc(C(=O)Nc3cc(C(=O)NC)cc(C4=NCCN4)c3)cc2)cc(C2=NCCN2)c1 | False |
| CCOC(=O)c1c(C)[nH]c(C(=O)C(N)C(=O)OCC)c1C (configuration not stated) | False |
| C[C@]12CC[C@@H]3c4ccc(O)cc4CC[C@H]3[C@@H]1CC[C@@H]2NCCCCCCO | False |
| CC(C)c1cc(=O)c2cc3[nH]c4ccccc4c3cc2[nH]1 | True |
| CCC(COS(=O)(=O)c1ccc(C)cc1)(COS(=O)(=O)c1ccc(C)cc1)COS(=O)(=O)c1ccc(C)cc1 | False |
| CCOc1ccc(C=Nc2ccc(/C=C(\C)C(=O)OCCC(C)C)cc2)cc1 | True |
| O=C1C(c2ccccc2)=[N+]([O-])c2cc([N+](=O)[O-])c(/C(Cl)=C/c3ccccc3)cc21 | False |
| CC(=O)OCC1CC2OC2CC1C (configuration not stated) | False |
| CC(C)CCOc1ccc(/C=C\C(=O)O)cc1 | False |
| CC1C(=O)C(C)C(c2ccccc2)N(C)C1c1ccccc1 (configuration not stated) | True |
| O=C(Nc1cccc(Cl)c1)OCCOC(=O)Nc1cccc(Cl)c1 | True |
| CCCC(=S)N1CCOCC1 | False |
| COc1cccc(/C=C2\CCC(CN(C)C)C2=O)c1 (configuration not stated) | True |
| CCOC(=O)CC1=NC(=Nc2cc(Cl)ccc2Cl)SC1 | True |
| Cc1cc(C)c(O)c(C2CC3CCC2(C)C3(C)C)c1 (configuration not stated) | True |
| CN(C)NC(=S)C(F)(F)F | True |
| O=C(CCN1CCN(c2cccc(Cl)c2)CC1)N1CCc2c([nH]c3ccccc23)C1c1cccnc1 (configuration not stated) | False |
| CC#CC#C/C=C1/C=CC(=O)O1 | False |
| COC(=O)c1c(C)cccc1C(=O)c1c(C)cc(C)cc1C | False |
| Oc1ccc(-c2ccc3ccccc3c2)cc1 | True |
| COc1cc(/C=C\C(=O)c2cccc(O)c(=O)c2)cc(OC)c1OC | False |
| c1ccc2c(c1)-c1cccc3cncc-2c13 | True |
| O=C(NCCc1c(-c2ccccc2)[nH]c2ccccc12)C(F)(F)C(F)(F)F | False |
| CC1=C(C2CO2)C(=O)C(C)=C(C2CO2)C1=O (configuration not stated) | True |
| O=[N+]([O-])c1ccc2c(c1)Cc1cc(Cl)ccc1-2 | False |
| Cc1nc(-c2ccc(N=Cc3ccc(N(CCOS(C)(=O)=O)CCOS(C)(=O)=O)cc3)cc2)cs1 | False |
| C(=C\[P+](c1ccccc1)(c1ccccc1)c1ccccc1)/c1ccccc1 | True |
| CCCCCCCCCCCCN(CCO)CCO | True |
| CN(C)C(=S)SN(C)C(=O)Nc1ccccc1 | True |
| CC(/C=C1\C(=O)N(C)C(CC(C)C(Cl)(Cl)Cl)C(=O)N1C)C(Cl)(Cl)Cl (configuration not stated) | True |
| CCOC(=O)N1C2C=CC(=O)C(C=C2)N1C(=O)OCC (configuration not stated) | False |
| O=C(CCC(O)(c1ccccc1)c1ccccc1)c1ccccc1 | False |
| Cc1cc(NCCCCCCCNc2cc(C)nc3cc(N)ccc23)c2ccc(N)cc2n1 | True |
| NCCC(N)P(=O)(O)O (configuration not stated) | False |
| [O-][n+]1onc2ncccc21 | True |
| c1ccc2c(c1)Nc1ccc3ccccc3c1S2 | False |
| CCCNC(=O)N(CC(C)(C)C)S(=O)(=O)c1ccc(Cl)cc1 | False |
| CCOC(=O)C(Cc1cc(I)c(Oc2ccc(OC)cc2)c(I)c1)NC(C)=O (configuration not stated) | True |
| CCOC(=O)Nc1nc2ccc(SC#N)cc2s1 | True |
| CCOC(=O)C(=Cc1ccc(C(=O)OC)cc1)C(=O)OCC | True |
| Clc1cc2c(c3ncccc13)OCN(Cc1ccccc1)C2 | True |
